Record form. Attribute: inhibition. Fill in for each entry.
Experiment: inhibitors of HIV fusion peptide binding, primary screen, biochemical, uHTS, fluorescence dequenching (AID 1986)
Conditions: cell-free peptide binding, 30 min, at 20 µM, stronger effect = higher value
The whole screen tested about 290,000 compounds, of which about 890 (0.31%) were called active. Only a selection was taken, and actives are over-represented in it overall.
Numbers only, in %.

Entry under test: Clc1ccc(Cc2noc(-c3cccs3)n2)cc1 . Its inhibition was 1.2

Entry under test: CC(=O)Nc1sc(N/N=C/c2ccc(C)cc2)nc1-c1ccc(C)cc1 . Its inhibition was -3

Entry under test: Cc1cccc(N=Nc2c(O)[nH]c3ccc(Br)cc23)c1 . Its inhibition was 13.9

Hello, I would appreciate it if you could give inhibition for each entry below.
1. CCOC(=O)c1sc(NC(=O)c2cc3n(n2)C(C(F)(F)F)CC(c2ccccc2)N3)c(C(=O)OCC)c1C (stereo unspecified)
2. Oc1[nH]c2ccc(Br)cc2c1N=Nc1ccc(F)cc1
3. Oc1[nH]c2ccccc2c1N=Nc1ccc(F)cc1

Marked response:
[0.6, 164, 150]

Hello, I would appreciate it if you could give inhibition for each entry below.
1. Cc1cc(C)cc(OCC(=O)Nc2nc(-c3cccnc3)cs2)c1
2. O=[N+]([O-])c1ccc(N=Nc2c(O)[nH]c3ccc(F)cc23)cc1

Marked response:
1: -0.2; 2: 6.3

---

Test: inhibitors of HIV fusion peptide binding, primary screen, biochemical, uHTS, fluorescence dequenching (AID 1986)
Details: cell-free peptide binding, 30 min, at 20 µM, stronger effect = higher value
Out of some 290,000 compounds screened, about 890 (0.31%) were called active. Only a selection was taken, and actives are over-represented in it overall.
Record form. Attribute: inhibition. Fill in for each entry.
One number for each entry, in %.

Entry under test: COCCn1c(SCc2cc(C(C)=O)ccc2OC)nc2cc(Cl)ccc2c1=O . Its inhibition was -2.4

Entry under test: CCCN1C(=O)/C(=C/c2c(N3CCNC(=O)C3CC(=O)OC)nc3c(C)cccn3c2=O)SC1=S (stereo not drawn) . Its inhibition was 148

Entry under test: C=CCOC(=O)c1cc(-c2ccc(/C=C3\C(=O)NC(=O)C(C#N)=C3C)o2)ccc1Cl . Its inhibition was -2.1

Entry under test: COc1ccc2nc(NC(=O)Cn3cnc4c(=O)n(C)c(=O)n(C)c43)sc2c1 . Its inhibition was 4

Entry under test: O=C(Nc1cccc(S(=O)(=O)N2CCCCC2)c1)c1ccccc1NS(=O)(=O)c1ccc(F)cc1 . Its inhibition was 58

Entry under test: O=C1N=C(N2CCCC2C(=O)O)S/C1=C\c1ccco1 (stereo not drawn) . Its inhibition was 52.2

Hello, I would appreciate it if you could give inhibition for each entry below.
1. COc1cc(/C=C2\SC(=Nc3ccccc3OC)NC2=O)ccc1O
2. COc1ccc(C(C)=O)cc1CSc1nc2cc(C(=O)O)ccc2c(=O)n1Cc1ccccc1
3. CCOc1cc2c(cc1/C=C/c1noc(C)c1[N+](=O)[O-])OC(C)C2 (stereo not drawn)
4. COc1ccc(-c2csc(NC(=O)c3ccccc3NS(=O)(=O)c3ccc(F)c(F)c3)n2)cc1
5. COc1ccc(/C=C2\SC(=Nc3ccccc3OC)NC2=O)cc1
6. O=S(=O)(Nc1ccc(-c2csc(-c3ccccc3)n2)cc1)c1ccc(F)cc1

Marked response:
1. 8.2
2. 62.4
3. 97.9
4. 65
5. 7.1
6. 0

---

Record form. Attribute: inhibition. Fill in for each entry.
Assay: inhibitors of HIV fusion peptide binding, primary screen, biochemical, uHTS, fluorescence dequenching (AID 1986)
Conditions: cell-free peptide binding, 30 min, at 20 µM, stronger effect = higher value
Out of some 290,000 compounds screened, about 890 (0.31%) were called active. The list comes from a sample in which actives are over-represented; it also holds close analogues and randomly drawn compounds.
Give bare numbers, in %.

Entry under test: O=C(N/N=C/c1ccncc1)c1cccs1 . Its inhibition was -1.5

Entry under test: COc1ccc(/C=c2\sc3nc(-c4ccccc4)c(-c4ccccc4)n3c2=O)cc1OC . Its inhibition was -0.1

Entry under test: O=c1[nH]c(-[n+]2ccccc2)c(/C=N/NC([S-])=Nc2ccccc2)s1 . Its inhibition was 97.7

Entry under test: O=C1/C(=C\c2ccco2)SC(=S)N1Cc1ccccc1 . Its inhibition was 66

Entry under test: Cn1c(=O)oc2cc(S(=O)(=O)NCc3ccc(F)cc3)ccc21 . Its inhibition was 8.5

Entry under test: O=C(CN1c2ccccc2Sc2ccccc21)N/N=C/c1ccc(Cl)cc1 . Its inhibition was -1

Entry under test: O=C(O)c1ccc(/C=N/Nc2nnnn2-c2ccccc2)cc1 . Its inhibition was 2.1

Entry under test: Nc1ccc2nc3c(=O)n(C4CCCCC4)c(=O)[nH]c3nc2c1 . Its inhibition was 146

Entry under test: COC(=O)COc1ccc(C2Nc3c(Cl)ccc(C(=O)O)c3C3C=CCC32)cc1 (stereo not given) . Its inhibition was 62.9

Entry under test: Cc1c2ccccc2nc2c(F)c(NCCO)c(F)c(F)c12 . Its inhibition was 23.4

Hello, I would appreciate it if you could give inhibition for each entry below.
1. CC1=NOC(=O)/C1=C/c1ccc(N(C)C)cc1
2. Cc1ccc(S(=O)(=O)N/N=C\c2cn(CC(N)=O)c3ccccc23)cc1
3. NC(=O)N/N=C/c1c(Sc2nnnn2-c2ccccc2)nc2ccccn2c1=O
4. Oc1c(C=Nc2cccnc2)sc2ccccc12

Marked response:
-2.2
0.7
0
1.4

Hello, I would appreciate it if you could give inhibition for each entry below.
1. CCCCC(=O)Nc1cccn2ncnc12
2. Oc1c(/C=N/c2ccccn2)sc2ccccc12
3. CCCCCCn1c(=O)[nH]c2nc3cc(N)c(C)cc3nc2c1=O

Marked response:
1: 0.2; 2: 6.4; 3: 38.8

Hello, I would appreciate it if you could give inhibition for each entry below.
1. Cc1ccc(N=Cc2cccc(O)c2O)c(C)c1
2. O=C1/C(=C/c2ccco2)SC(=S)N1C1CCS(=O)(=O)C1 (stereo not given)
3. O=C(NCCCCc1ccccc1)c1cccc([N+](=O)[O-])c1
4. CCCCNC(=O)Oc1cc(CCl)on1
5. CCOc1ccc(N2C(=O)C3Sc4[nH]c(=O)sc4C(/C=C/c4ccccc4)C3C2=O)cc1 (stereo not given)
6. Cc1oc2cc([N+](=O)[O-])c(O)c([N+](=O)[O-])c2c1C(=O)c1ccc(Cl)cc1
7. Cc1ccc(N=Cc2c(O)n(-c3nccs3)c(=O)c3ccccc23)c(C)c1

Marked response:
1: -1.8; 2: 39.9; 3: 0.7; 4: 0.1; 5: 53.6; 6: 19.8; 7: 75.3

---

Record form. Attribute: inhibition. Fill in for each entry.
Test: inhibitors of HIV fusion peptide binding, primary screen, biochemical, uHTS, fluorescence dequenching (AID 1986)
Conditions: cell-free peptide binding, 30 min, at 20 µM, stronger effect = higher value
The whole screen tested about 290,000 compounds, of which about 890 (0.31%) were called active. For the sample, actives were picked, then their nearest neighbours and some compounds at random.
One number for each entry, in %.

Check out these entries, answers already filled in.
Entry under test: Cc1nnc(NC(=O)C23CC4CC(CC(C4)C2)C3)s1 . Its inhibition was 2.2

Entry under test: CN(C)CCCN(C(=O)/C=C/c1cccs1)c1nc2c(F)cccc2s1 . Its inhibition was 0.3

Entry under test: O=C(O)CCN1C(=O)/C(=C\c2ccc(-c3nc4ccccc4s3)o2)SC1=S . Its inhibition was 73.9

Entry under test: CCC(C(=O)OCCOCCN(CC)CC)c1ccccc1 (stereo not drawn) . Its inhibition was -1.7

Entry under test: CCOC(=O)CCSc1nc(C(C)(C)C)cc(C(F)(F)F)c1C#N . Its inhibition was -0.1

Entry under test: CCOC(=O)CCSc1nc(C)cc(C(F)(F)F)c1C#N . Its inhibition was 82

Entry under test: O=C(CCN1C(=O)c2ccc([N+](=O)[O-])cc2C1=O)Nc1nccs1 . Its inhibition was -0.3

Entry under test: O=C(O)CCN1C(=O)/C(=C/c2ccc(-c3nc4ccccc4s3)o2)SC1=S . Its inhibition was 24.8

Hello, I would appreciate it if you could give inhibition for each entry below.
1. O=C(O)CC(C(=O)O)N1C(=O)/C(=C/c2ccc(-c3nc4ccccc4s3)o2)SC1=S (stereo not drawn)
2. CN(C)CCN(C(=O)/C=C/c1cccs1)c1nc2ccc(F)cc2s1
3. O=C(Nc1sc2c(c1C(=O)O)CCC2)c1ccccc1
4. C=CCCC(=O)N1CCC(n2nccc2NC(=O)CCCc2ccccc2)CC1

Marked response:
[99, -3.5, 12.1, -2.2]

Hello, I would appreciate it if you could give inhibition for each entry below.
1. O=C(O)CCCCCN1C(=O)/C(=C\c2ccncc2)SC1=S
2. CN(C)CCN(C(=O)/C=C/c1cccs1)c1nc2c(F)cc(F)cc2s1
3. Cc1ccccc1C1=N/C(=C/c2cccs2)C(=O)O1

Marked response:
6.4
56.7
4.6

Hello, I would appreciate it if you could give inhibition for each entry below.
1. N#C/C(=C\c1ccc(-c2nc3ccccc3s2)o1)C(N)=O
2. CCOC(=O)CNC(=O)CNC(=O)Cn1ccc2ccccc2c1=O
3. COc1ccc(OC)c(CNC(=O)CCSCc2ccc(F)cc2Cl)c1
4. CC(C)(C)c1ccc(C(=O)Nc2sc3c(c2C(=O)O)CCC3)cc1
5. O=C1OC(/C=C/c2ccc(Cl)cc2Cl)=NC/1=C\c1cccs1

Marked response:
1: 2.1; 2: -0.8; 3: 0; 4: 50.9; 5: 54.2
